- study_target: Human Topoisomerase II (Homo sapiens, UniProt P11388)
- Construct: purchased Inspiralis (Norwich, UK)
- Sequence (P11388 whole entry): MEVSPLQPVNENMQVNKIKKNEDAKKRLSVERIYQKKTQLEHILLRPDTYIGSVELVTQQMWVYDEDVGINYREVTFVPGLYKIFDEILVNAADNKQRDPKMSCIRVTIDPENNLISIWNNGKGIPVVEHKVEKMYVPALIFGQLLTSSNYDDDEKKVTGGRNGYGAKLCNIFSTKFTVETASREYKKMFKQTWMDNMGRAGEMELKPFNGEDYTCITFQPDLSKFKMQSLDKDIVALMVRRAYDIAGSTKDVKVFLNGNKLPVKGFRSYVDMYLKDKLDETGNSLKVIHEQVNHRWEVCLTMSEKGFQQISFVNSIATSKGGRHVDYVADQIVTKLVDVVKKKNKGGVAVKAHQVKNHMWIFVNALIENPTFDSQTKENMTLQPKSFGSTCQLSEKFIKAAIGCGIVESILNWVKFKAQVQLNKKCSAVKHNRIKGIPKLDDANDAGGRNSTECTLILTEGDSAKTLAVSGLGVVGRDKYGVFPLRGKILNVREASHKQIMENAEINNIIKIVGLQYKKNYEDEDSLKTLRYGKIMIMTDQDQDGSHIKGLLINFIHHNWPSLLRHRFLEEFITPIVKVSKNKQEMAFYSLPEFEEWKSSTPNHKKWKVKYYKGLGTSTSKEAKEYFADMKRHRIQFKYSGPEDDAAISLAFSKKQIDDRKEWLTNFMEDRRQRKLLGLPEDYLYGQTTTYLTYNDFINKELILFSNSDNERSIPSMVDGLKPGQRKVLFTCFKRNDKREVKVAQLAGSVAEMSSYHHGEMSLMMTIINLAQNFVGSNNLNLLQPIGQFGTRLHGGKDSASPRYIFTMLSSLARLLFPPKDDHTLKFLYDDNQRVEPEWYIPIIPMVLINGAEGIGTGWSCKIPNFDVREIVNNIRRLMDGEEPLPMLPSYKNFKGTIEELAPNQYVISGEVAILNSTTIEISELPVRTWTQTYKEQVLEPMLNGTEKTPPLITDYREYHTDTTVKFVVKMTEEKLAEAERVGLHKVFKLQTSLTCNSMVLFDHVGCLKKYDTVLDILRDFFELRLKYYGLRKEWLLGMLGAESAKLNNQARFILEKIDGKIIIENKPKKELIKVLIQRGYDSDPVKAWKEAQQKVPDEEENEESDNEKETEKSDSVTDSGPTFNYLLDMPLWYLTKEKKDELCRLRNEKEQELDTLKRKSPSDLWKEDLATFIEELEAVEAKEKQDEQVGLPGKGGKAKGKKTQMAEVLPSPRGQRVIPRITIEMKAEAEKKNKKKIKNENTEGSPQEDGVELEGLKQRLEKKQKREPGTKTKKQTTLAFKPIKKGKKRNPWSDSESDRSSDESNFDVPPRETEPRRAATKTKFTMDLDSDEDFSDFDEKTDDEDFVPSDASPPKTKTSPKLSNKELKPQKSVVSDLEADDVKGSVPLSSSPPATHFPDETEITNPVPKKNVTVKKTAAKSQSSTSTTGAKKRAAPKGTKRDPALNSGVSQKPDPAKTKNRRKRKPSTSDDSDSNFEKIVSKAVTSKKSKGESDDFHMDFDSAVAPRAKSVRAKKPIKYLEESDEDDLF
- test_method_notes: Human topoisomerase II decatenation gel assay
- Assay type: biochemical
- measurement_parameters: replicate Assay 2; read-out: IC50 Human Topoisomerase II (TopoII) decatenation, Assay 2
# maps each entry to its IC50

| compound_structure | readout_relation | IC50 [µM] |
| --- | --- | --- |
| O=C1COc2ncc(F)cc2N1[C@H]1CC[C@H](NCc2cc3c(=O)oc4ccc(F)cc4c3[nH]2)CC1 | = | 99 |
| COc1cnc2ncc(=O)n([C@H]3CC[C@H](NCc4cc5c(=O)oc6ccc(F)cc6c5[nH]4)CC3)c2c1 | = | 12.8 |
| O=c1oc2ccc(F)cc2c2[nH]c(CN[C@H]3CC[C@H](n4c(=O)cnc5ncc(F)cc54)CC3)cc12 | > | 300 |
| Cl.N#Cc1ccc2ccc(=O)n([C@H]3CC[C@H](NCc4cc5c(=O)oc6ccc(F)cc6c5[nH]4)CC3)c2c1 | = | 7 |
| Cl.O=c1oc2ccc(F)cc2c2[nH]c(CN[C@H]3CC[C@H](n4c(=O)ccc5ccc(F)cc54)CC3)cc12 | = | 7.3 |
| Cl.O=c1oc2ccc(F)cc2c2[nH]c(CN[C@H]3CC[C@H](n4c(=O)ccc5ncc(F)cc54)CC3)cc12 | = | 66 |

----------
- System: A. baumannii clinical isolates (n = 10)
- test_method_notes: microbe, parasite or virus in culture
- Type: cell-based, Acinetobacter baumannii
# maps each entry to its MIC range

| compound_structure | MIC range |
| --- | --- |
| O=c1oc2ccc(F)cc2c2[nH]c(CN[C@H]3CC[C@H](n4c(=O)cnc5ncc(F)cc54)CC3)cc12 | ≤0.06 to 0.5 µg/mL |
| Cl.O=c1oc2ccc(F)cc2c2[nH]c(CN[C@H]3CC[C@H](n4c(=O)ccc5ncc(F)cc54)CC3)cc12 | ≤0.06 to 0.12 µg/mL |
| COc1cnc2ncc(=O)n([C@H]3CC[C@H](NCc4cc5c(=O)oc6ccc(F)cc6c5[nH]4)CC3)c2c1 | 0.25 to 1 µg/mL |
| O=C1COc2ncc(F)cc2N1[C@H]1CC[C@H](NCc2cc3c(=O)oc4ccc(F)cc4c3[nH]2)CC1 | ≤0.06 to 0.12 µg/mL |
| Cl.N#Cc1ccc2ccc(=O)n([C@H]3CC[C@H](NCc4cc5c(=O)oc6ccc(F)cc6c5[nH]4)CC3)c2c1 | ≤0.06 to 0.12 µg/mL |

----------
# maps each entry to its MIC90
- System: S. aureus clinical isolates (n = 10)
- test_method_notes: microbe, parasite or virus in culture
- Assay type: cell-based, Staphylococcus aureus
- measurement_parameters: Staphylococcus aureus; S. aureus MDR clinical isolates (n = 10); read-out: MIC90
metric: MIC90 (µg/mL)

| compound | readout_relation | measured_result |
| --- | --- | --- |
| O=C1COc2ncc(F)cc2N1[C@H]1CC[C@H](NCc2cc3c(=O)oc4ccc(F)cc4c3[nH]2)CC1 [Compound 1] | = | 0.5 |
| Cl.O=c1oc2ccc(F)cc2c2[nH]c(CN[C@H]3CC[C@H](n4c(=O)ccc5ncc(F)cc54)CC3)cc12 [Compound 3] | ≤ | 0.06 |
| O=c1oc2ccc(F)cc2c2[nH]c(CN[C@H]3CC[C@H](n4c(=O)cnc5ncc(F)cc54)CC3)cc12 [Compound 4] | = | 0.5 |
| COc1cnc2ncc(=O)n([C@H]3CC[C@H](NCc4cc5c(=O)oc6ccc(F)cc6c5[nH]4)CC3)c2c1 [Compound 5] | = | 0.5 |
| Cl.N#Cc1ccc2ccc(=O)n([C@H]3CC[C@H](NCc4cc5c(=O)oc6ccc(F)cc6c5[nH]4)CC3)c2c1 [Compound 2] | ≤ | 0.06 |
